# tgt: system Xc^− (Homo sapiens, UniProt Q9UPY5)
# Sequence (Q9UPY5 whole entry): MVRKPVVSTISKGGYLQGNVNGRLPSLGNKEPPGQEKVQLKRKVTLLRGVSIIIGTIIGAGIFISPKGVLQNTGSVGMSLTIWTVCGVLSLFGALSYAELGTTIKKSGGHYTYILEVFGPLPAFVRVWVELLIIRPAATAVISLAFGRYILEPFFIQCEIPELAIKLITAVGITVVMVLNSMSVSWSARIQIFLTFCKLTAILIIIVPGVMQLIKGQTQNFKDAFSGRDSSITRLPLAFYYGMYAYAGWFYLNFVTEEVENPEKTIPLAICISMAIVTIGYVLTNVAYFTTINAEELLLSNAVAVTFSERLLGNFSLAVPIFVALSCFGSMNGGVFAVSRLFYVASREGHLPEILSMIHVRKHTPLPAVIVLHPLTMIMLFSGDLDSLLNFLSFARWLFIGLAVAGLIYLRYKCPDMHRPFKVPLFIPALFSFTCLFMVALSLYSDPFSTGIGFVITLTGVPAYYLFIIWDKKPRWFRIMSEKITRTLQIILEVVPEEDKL
# Sequence (P08195 102-630 partner): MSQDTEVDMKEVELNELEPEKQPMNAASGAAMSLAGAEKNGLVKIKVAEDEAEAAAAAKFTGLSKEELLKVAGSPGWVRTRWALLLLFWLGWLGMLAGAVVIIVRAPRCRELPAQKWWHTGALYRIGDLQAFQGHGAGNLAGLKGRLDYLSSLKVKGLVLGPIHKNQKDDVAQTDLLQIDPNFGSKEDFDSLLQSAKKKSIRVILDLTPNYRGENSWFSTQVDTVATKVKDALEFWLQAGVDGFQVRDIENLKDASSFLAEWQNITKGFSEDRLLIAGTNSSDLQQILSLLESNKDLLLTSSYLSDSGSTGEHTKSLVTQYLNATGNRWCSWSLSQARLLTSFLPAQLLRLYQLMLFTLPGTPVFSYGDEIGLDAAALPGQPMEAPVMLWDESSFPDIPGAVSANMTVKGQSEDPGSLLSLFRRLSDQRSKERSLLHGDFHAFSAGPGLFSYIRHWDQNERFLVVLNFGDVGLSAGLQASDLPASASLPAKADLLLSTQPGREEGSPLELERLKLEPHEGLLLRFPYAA
# procedure details: Cystine-induced glutamate release assay
# Assay type: cell-based
# Design: endogenous in cells; host or cells: H4 cells
# condition context: H4 cells, sodium-free HEPES buffer, 50 μM L-Cystine, 2 hours, Amplex Red glutamate readout; read-out: pIC50 Cystine-induced glutamate release assay (converted)
# Description: The effect of compounds of Formula (I) on the system Xc^− functionality was examined in two independent cell assays: (i) measurement of cystine-induced glutamate release; and (ii) measurement of [^14C]L-Cystine uptake. […] In this assay, the medium is devoid of sodium to prevent the transport of glutamate by sodium-dependent excitatory amino acid transporters (EAATs). […] Fluorescence intensity was measured by EnVision microplate reader (PerkinElmer).
Parameter: IC50. Scope: all listed entries.
reported metric: IC50

molecule="CO[C@H]1C(=O)N(CC(=O)Nc2ccc(C(F)(F)F)cc2)c2cc(C)nc(Cl)c2-c2cccnc21 (single isomer, unassigned)" tgt="system Xc^− (Homo sapiens, UniProt Q9UPY5)" result="15.8 to 39.8 nM"
molecule=Cc1cc2c(c(F)n1)-c1cccc(C#N)c1CC(=O)N2CC(=O)Nc1ccc(C(F)(F)F)cc1 tgt="system Xc^− (Homo sapiens, UniProt Q9UPY5)" result="39.8 to 100 nM"
molecule="CC1C(=O)N(CC(=O)Nc2ccc(C(F)F)cc2)c2cc(N3CC(C)(F)C3)nc(F)c2-c2cccnc21 (single isomer, unassigned)" tgt="system Xc^− (Homo sapiens, UniProt Q9UPY5)" result="< 15.8 nM"
molecule="COc1cc2c(c(Cl)n1)-c1cccnc1C(C)C(=O)N2CC(=O)Nc1ccc(C(F)F)cc1 (single isomer, unassigned)" tgt="system Xc^− (Homo sapiens, UniProt Q9UPY5)" result="< 15.8 nM"
molecule="CC1C(=O)N(CC(=O)Nc2ccc(C(F)(F)F)nc2)c2cc(Cl)cc(F)c2-c2cccnc21 (single isomer, unassigned)" tgt="system Xc^− (Homo sapiens, UniProt Q9UPY5)" result="39.8 to 100 nM"
molecule="COc1cc2c(c(=O)n1C)-c1ccccc1C(C)C(=O)N2CC(=O)Nc1ccc(C(F)F)cc1 (stereo not drawn)" tgt="system Xc^− (Homo sapiens, UniProt Q9UPY5)" result="15.8 to 39.8 nM"
molecule="Cc1cc2c(cn1)-c1ncccc1C(C)C(=O)N2CC(=O)Nc1ccc(Cl)c(F)c1 (single isomer, unassigned)" tgt="system Xc^− (Homo sapiens, UniProt Q9UPY5)" result="39.8 to 100 nM"
molecule="CCn1c2c(cc(C)c1=O)N(CC(=O)Nc1ccc(Cl)c(F)c1)C(=O)C(C)c1ccccc1-2 (stereo not drawn)" tgt="system Xc^− (Homo sapiens, UniProt Q9UPY5)" result="15.8 to 39.8 nM"
molecule=Cc1cc2c(cn1)-c1cccnc1CC(=O)N2CC(=O)Nc1ccc(C(F)(F)F)cc1 tgt="system Xc^− (Homo sapiens, UniProt Q9UPY5)" result="39.8 to 100 nM"
molecule=Cc1cc2c(cn1)-c1ccc(Cl)cc1CC(=O)N2CC(=O)Nc1ccc(C(F)(F)F)cc1 tgt="system Xc^− (Homo sapiens, UniProt Q9UPY5)" result="39.8 to 100 nM"
molecule="Cc1cc2c(c(=O)n1C)-c1ccc(F)cc1C(C)C(=O)N2CC(=O)Nc1ccc(Cl)c(F)c1 (single isomer, unassigned)" tgt="system Xc^− (Homo sapiens, UniProt Q9UPY5)" result="< 15.8 nM"
molecule=Cc1cc2c(cn1)-c1ccccc1CC(=O)N2CC(=O)Nc1ccc(C(F)(F)F)cc1 tgt="system Xc^− (Homo sapiens, UniProt Q9UPY5)" result="100 to 501 nM"
molecule="Cc1cc2c(c(Cl)n1)-c1cccnc1[C@@H](C)C(=O)N2CC(=O)Nc1ccc(C(F)(F)F)cc1 (single isomer, unassigned)" tgt="system Xc^− (Homo sapiens, UniProt Q9UPY5)" result="< 15.8 nM"
molecule="Cc1cc2c(cc1C#N)-c1cc(F)cnc1C(C)C(=O)N2CC(=O)Nc1ccc(C(F)F)cc1 (single isomer, unassigned)" tgt="system Xc^− (Homo sapiens, UniProt Q9UPY5)" result="< 15.8 nM"
molecule="CC1C(=O)N(CC(=O)Nc2ccc(Cl)c(F)c2)c2cccc(F)c2-c2cccnc21 (single isomer, unassigned)" tgt="system Xc^− (Homo sapiens, UniProt Q9UPY5)" result="15.8 to 39.8 nM"
molecule="Cc1cc2c(c(F)n1)-c1cc(F)ccc1C(C)C(=O)N2CC(=O)Nc1ccc(Cl)c(F)c1 (single isomer, unassigned)" tgt="system Xc^− (Homo sapiens, UniProt Q9UPY5)" result="15.8 to 39.8 nM"
molecule=Cc1cc2c(c(F)n1)-c1cccnc1CC(=O)N2CC(=O)Nc1ccc(C(F)(F)F)cc1 tgt="system Xc^− (Homo sapiens, UniProt Q9UPY5)" result="15.8 to 39.8 nM"
molecule="CC1C(=O)N(CC(=O)Nc2ccc(Cl)c(F)c2)c2cc(CN3CC(F)(F)C3)ccc2-c2cccnc21 (stereo not drawn)" tgt="system Xc^− (Homo sapiens, UniProt Q9UPY5)" result="39.8 to 100 nM"
molecule="Cc1cc2c(c(F)n1)-c1ccn(C)c(=O)c1C(C)C(=O)N2CC(=O)Nc1ccc(Cl)c(F)c1 (stereo not drawn)" tgt="system Xc^− (Homo sapiens, UniProt Q9UPY5)" result="39.8 to 100 nM"
molecule=Cc1cc2c(cn1)N(CC(=O)Nc1ccc(C(F)(F)F)cc1)C(=O)Cc1ccccc1-2 tgt="system Xc^− (Homo sapiens, UniProt Q9UPY5)" result="100 to 501 nM"
molecule=Cc1cc2c(c(N)n1)-c1cccnc1CC(=O)N2CC(=O)Nc1ccc(C(F)(F)F)cc1 tgt="system Xc^− (Homo sapiens, UniProt Q9UPY5)" result="100 to 501 nM"
molecule="Cc1cc2c(c(F)n1)-c1cccnc1C(C)C(=O)N2CC(=O)Nc1ccc(C)c(F)c1 (stereo not drawn)" tgt="system Xc^− (Homo sapiens, UniProt Q9UPY5)" result="15.8 to 39.8 nM"
molecule="Cc1cc2c(c(Cl)n1)-c1cccnc1C(F)C(=O)N2CC(=O)Nc1ccc(C(F)F)cc1 (single isomer, unassigned)" tgt="system Xc^− (Homo sapiens, UniProt Q9UPY5)" result="< 15.8 nM"
molecule="CC1C(=O)N(CC(=O)Nc2ccc(C(F)F)cc2)c2cc(N3CC4(CCOC4)C3)nc(F)c2-c2cccnc21 (single isomer, unassigned)" tgt="system Xc^− (Homo sapiens, UniProt Q9UPY5)" result="15.8 to 39.8 nM"

The measurements presented in this section are drawn from patent US20260217708A1.
